System tested: Solute carrier organic anion transporter family member 1B1 (Homo sapiens)
Sequence (Q9Y6L6 whole entry): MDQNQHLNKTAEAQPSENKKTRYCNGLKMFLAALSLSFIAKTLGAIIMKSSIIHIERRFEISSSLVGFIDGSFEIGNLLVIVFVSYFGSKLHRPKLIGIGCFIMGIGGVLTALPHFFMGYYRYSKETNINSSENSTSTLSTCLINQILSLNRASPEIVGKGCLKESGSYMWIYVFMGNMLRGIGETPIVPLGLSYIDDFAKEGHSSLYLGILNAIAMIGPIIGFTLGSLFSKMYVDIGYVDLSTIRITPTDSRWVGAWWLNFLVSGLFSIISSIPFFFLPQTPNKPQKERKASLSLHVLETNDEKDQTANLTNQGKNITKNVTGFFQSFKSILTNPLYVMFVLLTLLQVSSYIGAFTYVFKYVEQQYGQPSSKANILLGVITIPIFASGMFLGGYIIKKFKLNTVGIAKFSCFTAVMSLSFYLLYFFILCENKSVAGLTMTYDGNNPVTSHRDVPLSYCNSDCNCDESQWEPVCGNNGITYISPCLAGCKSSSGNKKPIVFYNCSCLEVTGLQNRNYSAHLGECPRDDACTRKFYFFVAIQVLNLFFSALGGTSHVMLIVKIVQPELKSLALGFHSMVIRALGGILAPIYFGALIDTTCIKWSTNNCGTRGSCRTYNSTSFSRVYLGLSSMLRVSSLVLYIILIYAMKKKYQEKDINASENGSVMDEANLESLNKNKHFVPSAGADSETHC
Protocol description: TP_TRANSPORTER: uptake in Xenopus laevis oocytes
Assay type: functional, cell-based
Condition details: oocyte
Experimental endpoint: Activity

A selection of reference data follows.
>>> result_value("CCCCC[C@H](O)/C=C/[C@H]1[C@H](O)CC(=O)[C@@H]1C/C=C\\CCCC(=O)O [DINOPROSTONE]")
"substrate [+]"
>>> result_value("C[C@]12CC[C@@H]3c4ccc(O)cc4CC[C@H]3[C@@H]1CC[C@@H]2O[C@@H]1O[C@H](C(=O)O)[C@@H](O)[C@H](O)[C@H]1O [ESTRADIOL 17B GLUCURONIDE]")
"substrate [+]"
>>> result_value("CCCCC[C@H](O)/C=C/[C@H]1OC(O)C[C@H](O)[C@@H]1C/C=C\\CCCC(=O)O (stereo partly specified) [THROMBOXANE B2]")
"substrate [+]"
>>> result_value("CCCCC/C=C\\C\\C=C/C=C/C=C/[C@@H](SC[C@H](N)C(=O)O)[C@@H](O)CCCC(=O)O [LEUKOTRIEN E4]")
"substrate [+]"
>>> result_value("CCCCC/C=C\\C\\C=C/C=C/C=C/[C@@H](SC[C@@H](NC(=O)CC[C@H](N)C(=O)O)C(=O)NCC(=O)O)[C@@H](O)CCCC(=O)O [LEUKOTRIEN C4]")
"substrate [+]"

Then this compound:
Request: Fill in Activity for record C[C@]12CC[C@H](OS(=O)(=O)O)CC1=CC[C@@H]1[C@@H]2CC[C@]2(C)C(=O)CC[C@@H]12 [PRASTERONE SULFURIC ACID]
Response: substrate [+]
